- Target Or System: purified recombinant human PSMA protein (PSMA extracellular domain, baculovirus-insect cell expression) (UniProt Q04609 44-750)
- Sequence (Q04609 44-750): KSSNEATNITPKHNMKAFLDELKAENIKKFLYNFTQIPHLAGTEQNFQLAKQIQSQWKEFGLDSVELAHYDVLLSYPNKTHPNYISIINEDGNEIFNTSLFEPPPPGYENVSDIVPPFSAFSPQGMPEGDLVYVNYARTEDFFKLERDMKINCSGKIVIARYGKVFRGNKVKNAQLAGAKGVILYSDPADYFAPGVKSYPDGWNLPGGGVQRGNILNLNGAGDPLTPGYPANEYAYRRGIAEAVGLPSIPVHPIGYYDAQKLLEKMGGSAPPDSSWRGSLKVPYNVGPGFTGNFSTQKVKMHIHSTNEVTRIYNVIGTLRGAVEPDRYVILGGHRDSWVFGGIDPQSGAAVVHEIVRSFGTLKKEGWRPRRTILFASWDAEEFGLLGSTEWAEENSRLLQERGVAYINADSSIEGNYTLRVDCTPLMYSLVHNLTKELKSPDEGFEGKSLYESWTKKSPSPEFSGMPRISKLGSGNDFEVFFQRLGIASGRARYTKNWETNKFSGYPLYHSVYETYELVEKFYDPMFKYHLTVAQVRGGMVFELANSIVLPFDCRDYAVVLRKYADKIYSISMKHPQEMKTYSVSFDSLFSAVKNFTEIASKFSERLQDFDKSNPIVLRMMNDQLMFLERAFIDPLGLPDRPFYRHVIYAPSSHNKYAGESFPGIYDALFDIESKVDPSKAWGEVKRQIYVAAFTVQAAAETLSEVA
- Assay Text: SPR (Biacore)
Measured Parameter: Kd

**Q:** Provide one value: measured Kd of anti-PSMA mouse monoclonal antibody #1366 (antibody, V domains shown) VH: VKLQESGPGLVAPSQSLSITCTVSGFSLTDYGVSWIRQPPGKGLEWLGVIWSDGNTYYNSPLKSRLSINKDNSKSQVFLKMNSLQTDDSAMYYCARHKVYTMDYWGQGTSVTVSS VL: TVLTQSPAIMSASPGEKVTMTCRASSSVSSSYLHWYQQKSSASPKLWIYRTSNLASGVPARFSGSGSGTSYSLTISSLEAEDAATYYCQQYSGYPLTFGAGTKLELKR
**A:** 295 nM
